# procedureText: Toxicity in Swiss albino mouse assessed as mortality at 900 mg/kg, po administered for 14 consecutive days
# Format: organism-based
# reportedConditions: in vivo
measurementLabel: mortality at 14 days (%)
Answers are plain numbers, in %.

Notebook: COc1cc(-c2nc(-c3ccccc3)c(-c3ccccc3)[nH]2)cc(OC)c1OC , mortality at 14 days read as 50

====

# testTarget: Cholinesterase (Equus caballus) (UniProt P81908)
# Sequence (P81908 whole entry): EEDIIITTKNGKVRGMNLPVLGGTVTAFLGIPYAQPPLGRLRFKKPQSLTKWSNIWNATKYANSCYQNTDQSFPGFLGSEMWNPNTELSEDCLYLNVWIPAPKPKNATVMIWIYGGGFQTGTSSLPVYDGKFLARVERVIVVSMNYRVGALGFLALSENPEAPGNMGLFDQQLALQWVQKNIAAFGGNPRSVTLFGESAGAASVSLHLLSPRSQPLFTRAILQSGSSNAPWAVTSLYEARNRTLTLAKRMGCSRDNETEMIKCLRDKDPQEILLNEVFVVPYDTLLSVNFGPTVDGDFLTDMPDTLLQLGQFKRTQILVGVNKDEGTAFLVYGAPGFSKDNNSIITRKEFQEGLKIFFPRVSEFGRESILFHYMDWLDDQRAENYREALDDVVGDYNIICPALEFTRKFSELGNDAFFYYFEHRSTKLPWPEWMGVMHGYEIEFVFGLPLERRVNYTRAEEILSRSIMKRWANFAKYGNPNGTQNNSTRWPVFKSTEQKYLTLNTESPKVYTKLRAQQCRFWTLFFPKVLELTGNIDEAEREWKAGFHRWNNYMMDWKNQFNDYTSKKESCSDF
# procedureText: Inhibition of equine serum BChE at 10 uM using S-butyrylthiocholine chloride as substrate preincubated for 15 mins followed by substrate addition and measured for 45 mins by Ellmans microplate assay
Calls of active or inactive are those of the source. The rule behind the calls is not given here.
measurementLabel: inhibition

Example entries and their recorded answers appear below.
Notebook: Oc1ccc(-c2nc(-c3ccccc3)c(-c3ccccc3)[nH]2)cc1 , inhibition read as inactive

Notebook: COc1cccc(-c2nc(-c3ccccc3)c(-c3ccccc3)[nH]2)c1 , inhibition read as 19.2%

Notebook: Oc1ccc(-c2nc(-c3ccccc3)c(-c3ccccc3)[nH]2)cc1O , inhibition read as 79.5%

Notebook: Oc1ccccc1-c1nc(-c2ccccc2)c(-c2ccccc2)[nH]1 , inhibition read as 13.7%

Notebook: c1ccc(-c2nc[nH]c2-c2ccccc2)cc1 , inhibition read as 13%

Please state inhibition for every molecule in the list that follows.
1. c1ccc(-c2nc(-c3ccccc3)c(-c3ccccc3)[nH]2)cc1
2. Oc1cccc(-c2nc(-c3ccccc3)c(-c3ccccc3)[nH]2)c1
3. COc1cc(-c2nc(-c3ccccc3)c(-c3ccccc3)[nH]2)cc(OC)c1OC
4. COc1cc(-c2nc(-c3ccccc3)c(-c3ccccc3)[nH]2)cc(OC)c1O
5. COc1ccc(-c2nc(-c3ccccc3)c(-c3ccccc3)[nH]2)cc1OC

1: inactive; 2: inactive; 3: 81.3%; 4: inactive; 5: inactive

====

# testTarget: Acetylcholinesterase (Electrophorus electricus, UniProt O42275)
# Sequence (O42275 whole entry): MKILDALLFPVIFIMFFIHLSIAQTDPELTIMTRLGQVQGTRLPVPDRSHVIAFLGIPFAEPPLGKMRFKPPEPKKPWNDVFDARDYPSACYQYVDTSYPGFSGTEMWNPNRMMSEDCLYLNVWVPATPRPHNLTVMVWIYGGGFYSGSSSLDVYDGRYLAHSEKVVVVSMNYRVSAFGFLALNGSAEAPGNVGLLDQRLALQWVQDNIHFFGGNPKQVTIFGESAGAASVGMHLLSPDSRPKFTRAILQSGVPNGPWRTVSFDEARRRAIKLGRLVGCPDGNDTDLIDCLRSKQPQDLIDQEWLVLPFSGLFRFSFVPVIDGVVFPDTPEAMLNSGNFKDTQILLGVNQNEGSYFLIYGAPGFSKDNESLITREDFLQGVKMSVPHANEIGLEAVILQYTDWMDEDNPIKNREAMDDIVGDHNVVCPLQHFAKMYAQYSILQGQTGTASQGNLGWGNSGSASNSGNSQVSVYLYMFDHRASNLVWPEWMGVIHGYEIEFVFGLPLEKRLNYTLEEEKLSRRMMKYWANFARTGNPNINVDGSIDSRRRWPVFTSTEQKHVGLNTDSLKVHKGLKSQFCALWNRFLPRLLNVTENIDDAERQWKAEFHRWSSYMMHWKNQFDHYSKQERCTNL
# procedureText: Inhibition of electric eel AChE using acetylthiocholine iodide as substrate preincubated for 15 mins followed by substrate addition and measured for 45 mins by Ellmans microplate assay
# reportedConditions: read-out: IC50
measurementLabel: IC50
Mention the unit after the number when you answer.

Notebook: Oc1cccc(-c2nc(-c3ccccc3)c(-c3ccccc3)[nH]2)c1 , IC50 read as 5.33 µM

====

Reported IC50 for target or system Acetylcholinesterase (Homo sapiens), by entry.
Answers are plain numbers, in nM.

Notebook: CCc1nn(CCCN2CCN(c3cccc(Cl)c3)CC2)c(=O)n1CCOc1ccccc1 , IC50 read as 1040

In the following, a different compound is considered.
Notebook: CCCCOc1ccc(C(=O)CCN2CCCCC2)cc1 , IC50 read as 181
